target: 5HT6-human recombinant receptor (Homo sapiens, UniProt P50406); test: Binding to Serotonin Receptor 5-HT6 ([3H]-LSD displacement); conditions: membranes of HEK-293 cells expressing the receptor; radioligand [3H]-LSD 2.7 nM; 60 minutes at 37° C.; triplicate
Sequence (P50406 whole entry): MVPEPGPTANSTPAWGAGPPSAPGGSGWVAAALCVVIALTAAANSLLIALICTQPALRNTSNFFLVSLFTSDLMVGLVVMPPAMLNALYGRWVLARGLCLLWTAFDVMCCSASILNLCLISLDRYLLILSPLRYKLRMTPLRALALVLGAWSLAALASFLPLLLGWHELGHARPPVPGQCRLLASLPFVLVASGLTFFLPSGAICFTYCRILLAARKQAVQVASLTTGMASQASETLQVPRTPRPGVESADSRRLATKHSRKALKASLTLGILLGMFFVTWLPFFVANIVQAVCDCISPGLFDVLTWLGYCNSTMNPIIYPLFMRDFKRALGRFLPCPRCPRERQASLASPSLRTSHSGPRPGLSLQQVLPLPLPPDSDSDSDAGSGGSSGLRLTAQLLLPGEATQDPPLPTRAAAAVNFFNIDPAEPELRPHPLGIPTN
We label by threshold. Values of Ki strictly beneath 200 nM are Satisfied. Values of 200 nM and up are Not satisfied.

Observe how each entry below is paired with its result.
>  <Compound>
CN(C)C(=O)C(=O)c1c[nH]c2ccc(NS(=O)(=O)c3c(Cl)nc4sccn34)cc12 [Example 10]

>  <Answer label>
Satisfied

$$$$
>  <Compound>
CCN(CC)C(=O)C(=O)c1c[nH]c2ccc(NS(=O)(=O)c3c(Cl)nc4sccn34)cc12 [Example 9]

>  <Answer label>
Not satisfied

$$$$
>  <Compound>
CN(C)C(=O)C(=O)c1c[nH]c2ccc(NS(=O)(=O)c3ccc(Oc4ccccc4)cc3)cc12 [Example 20]

>  <Answer label>
Satisfied

$$$$
>  <Compound>
CN(C)C(=O)C(=O)c1c[nH]c2cccc(NS(=O)(=O)c3c(Cl)nc4sccn34)c12 [Example 13]

>  <Answer label>
Satisfied

$$$$

In the record for Cc1[nH]c2ccc(NS(=O)(=O)c3c(Cl)nc4sccn34)cc2c1C(=O)C(=O)N(C)C [Example 22] , is Ki less than 200 nM?
Satisfied

All values here come from patent US20070203121A1.
